test: Tissue distribution of THP, DHC and protopine in rat tissues after gastric gavage administration (HPLC-UV, non-compartmental analysis); assay type: in vivo, Wistar male rats; conditions: male, Wistar, po, 26.1 mg/kg, rat heart, read-out: AUC0–24 h of DHC
reported_metric: AUC(0-t)

Query: Using the record for COc1cc2c(cc1OC)-c1c(C)c3ccc(OC)c(OC)c3c[n+]1CC2 [DHC, dehydrocorydaline] , report its AUC(0-t).
Reply: 850 ng·h/mL

====

assay: Tissue distribution of THP, DHC and protopine in rat tissues after gastric gavage administration (HPLC-UV, non-compartmental analysis); type: in vivo, Wistar male rats; details: male, Wistar, diencephalon, po, 4.52 mg/kg, rat diencephalons, read-out: Cmax of protopine
reported_metric: Cmax (ng/mL)
Answer format: numeric, ng/mL implied, no suffix.

Query: Looking for the measured Cmax of CN1CCc2cc3c(cc2C(=O)Cc2ccc4c(c2C1)OCO4)OCO3 [protopine] , can you help?
Reply: 1310

Measured values drawn from paper PMC6268586 for this set.
